Run description: Inhibition of Cu2+-mediated aggregation of amyloid beta (1-42) (unknown origin) at 25 uM after 24 hrs by thioflavin T fluorescence-based fluorimetric method relative to control
Type: functional
Entries and their measured inhibition follow.
Your answer is read as %, so omit the unit and give the number.

>>> reported_result("CN(C)c1ccc(/C=C/C(=O)c2ccc(OC(=O)N3CCCCC3)cc2O)cc1")
73.9

// next item, inhibition requested
input: Supply reported inhibition belonging to this compound: `CCN(CC)C(=O)Oc1ccc(C(=O)/C=C/c2ccc(N(C)C)cc2)c(O)c1`
output: 49

###

Run description: Antioxidant activity assessed as trolox equivalents of AAPH radical scavenging activity at 5 uM preincubated for 15 mins followed by AAPH addition measured every 60 sec for 90 mins by ORAC-FL assay
Type: functional
Assign labels as follows, please: T for Activity below 2 µMequiv/µM; F for Activity equal to or exceeding 2 µMequiv/µM.

See these solved cases before continuing.
>>> group("CN(C)C(=O)Oc1ccc(C(=O)/C=C/c2ccc(N(C)C)cc2)c(OC(=O)N(C)C)c1")
"F"
>>> group("CN(C)c1ccc(/C=C/C(=O)c2ccc(OC(=O)N3CCCCC3)cc2O)cc1")
"F"
>>> group("O=C(/C=C/c1ccc(N2CCCCC2)cc1)c1ccc(OC(=O)N2CCCC2)cc1O")
"T"
>>> group("CN(C)c1ccc(/C=C/C(=O)c2ccc(OC(=O)N3CCCC3)cc2O)cc1")
"F"
>>> group("CN(C)c1ccc(/C=C/C(=O)c2ccc(OC(=O)N3CCN(Cc4ccccc4)CC3)cc2O)cc1")
"F"
>>> group("O=C(/C=C/c1ccc(N2CCCC2)cc1)c1ccc(OC(=O)N2CCCC2)cc1O")
"T"

input: Does the reported Activity of the following compound sit strictly below 2 µMequiv/µM? `CCN1CCN(C(=O)Oc2ccc(C(=O)/C=C/c3ccc(N(C)C)cc3)c(O)c2)CC1`
output: F

input: Please let me know if `CN(C)c1ccc(/C=C/C(=O)c2ccc(OC(=O)N3CCOCC3)cc2OC(=O)N2CCOCC2)cc1` shows Activity below 2 µMequiv/µM.
output: T

###

Test target: Acetylcholinesterase (Electrophorus electricus, UniProt O42275)
Sequence (O42275 whole entry): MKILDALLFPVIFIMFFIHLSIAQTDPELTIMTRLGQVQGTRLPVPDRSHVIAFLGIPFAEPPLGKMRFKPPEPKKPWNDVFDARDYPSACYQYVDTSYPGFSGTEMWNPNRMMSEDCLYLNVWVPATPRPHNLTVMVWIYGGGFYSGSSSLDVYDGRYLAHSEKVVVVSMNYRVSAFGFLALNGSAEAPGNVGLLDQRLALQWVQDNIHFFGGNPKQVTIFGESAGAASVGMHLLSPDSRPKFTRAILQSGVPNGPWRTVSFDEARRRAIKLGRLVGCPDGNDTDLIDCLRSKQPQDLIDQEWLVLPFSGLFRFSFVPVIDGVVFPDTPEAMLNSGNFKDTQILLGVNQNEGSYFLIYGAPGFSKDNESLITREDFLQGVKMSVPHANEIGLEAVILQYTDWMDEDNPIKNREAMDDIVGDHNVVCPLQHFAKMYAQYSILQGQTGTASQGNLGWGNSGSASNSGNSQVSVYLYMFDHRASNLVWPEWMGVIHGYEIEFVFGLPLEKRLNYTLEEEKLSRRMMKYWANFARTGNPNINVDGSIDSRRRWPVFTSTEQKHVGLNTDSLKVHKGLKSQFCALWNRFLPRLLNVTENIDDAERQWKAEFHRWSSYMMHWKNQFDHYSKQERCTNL
Labelling field: enter fulfilled if recorded IC50 is less than 10 µM. Enter not fulfilled if it equals or exceeds that cut-off.

Examples with answers:
>>> group("CN(C)c1ccc(/C=C/C(=O)c2ccc(OC(=O)N3CCN(Cc4ccccc4)CC3)cc2O)cc1")
"not fulfilled"
>>> group("CN(C)c1ccc(/C=C/C(=O)c2ccc(OC(=O)N3CCCC3)cc2OC(=O)N2CCCC2)cc1")
"not fulfilled"
>>> group("O=C(/C=C/c1ccc(N2CCCCC2)cc1)c1ccc(OC(=O)N2CCCC2)cc1O")
"not fulfilled"
>>> group("O=C(/C=C/c1ccc(N2CCCC2)cc1)c1ccc(OC(=O)N2CCCC2)cc1O")
"not fulfilled"
>>> group("CCN(CC)C(=O)Oc1ccc(C(=O)/C=C/c2ccc(N(C)C)cc2)c(O)c1")
"not fulfilled"
>>> group("CN1CCN(C(=O)Oc2ccc(C(=O)/C=C/c3ccc(N(C)C)cc3)c(O)c2)CC1")
"not fulfilled"
>>> group("CN(C)c1ccc(/C=C/C(=O)c2ccc(OC(=O)N3CCOCC3)cc2O)cc1")
"fulfilled"
>>> group("CN(C)c1ccc(/C=C/C(=O)c2ccc(O)cc2O)cc1")
"not fulfilled"

input: Say whether its IC50 is strictly beneath 10 µM. Entry: `CN(C)C(=O)Oc1ccc(C(=O)/C=C/c2ccc(N(C)C)cc2)c(OC(=O)N(C)C)c1`
output: not fulfilled

input: IC50 strictly < 10 µM for this molecule? `CN(C)c1ccc(/C=C/C(=O)c2ccc(OC(=O)N3CCCCC3)cc2O)cc1`
output: fulfilled
